Hello, the source for this data is ChEMBL document CHEMBL3124933, in case you need it.

- experimental_details: physchem
- assay_setup: buffer, pH 7.4
readout_label: logD

[
  {
    "compound": "COCCOc1nc([C@H]2CCCO2)c(C(=O)NC2C3CC4CC2CC(O)(C4)C3)s1 (some centres undefined)",
    "logD": 2.1
  },
  {
    "compound": "COC[C@H](C)Oc1nc([C@H]2CCCO2)c(C(=O)NC2C3CC4CC2CC(O)(C4)C3)s1 (some centres undefined)",
    "logD": 2.8
  },
  {
    "compound": "Nc1nc([C@H]2CCCO2)c(C(=O)N[C@H]2C3CC4CC2C[C@](O)(C4)C3)s1",
    "logD": 1.7
  }
]

[P] O=C(NC1C2CC3CC1CC(O)(C3)C2)c1scnc1[C@H]1CCCO1 (some centres undefined)
[Q] COC[C@H](C)Oc1nc(C2CC2)c(C(=O)N[C@H]2C3CC4CC2C[C@](O)(C4)C3)s1
Hi team, can someone confirm which has the larger logD: P or Q ? Thanks. State your choice using its label. Q
(Q: 2.8, P: 1.6)

[A] CN(C)c1nc([C@H]2CCCO2)c(C(=O)N[C@H]2C3CC4CC2C[C@](O)(C4)C3)s1
[B] Cc1nc(C(F)(F)F)c(C(=O)N[C@H]2C3CC4CC2C[C@](O)(C4)C3)s1
[C] O=C(N[C@H]1C2CC3CC1C[C@](O)(C3)C2)c1cncs1
[D] COc1c(C(=O)NC2C3CC4CC2CC(O)(C4)C3)cnn1C (centres undefined)
Sort by logD, descending. Provide your answer as the labels ordered per the instruction. A, B, C, D

* * *

- experimental_details: Clearance in iv dosed Han Wistar rat
- Type: ADME, organism-based
- assay_setup: in vivo
readout_label: clearance (mL/min/kg)

Here are 6 compounds together with their reported answers.
[
  {
    "compound": "O=C(N[C@H]1C2CC3CC1C[C@](O)(C3)C2)c1sc(OC2CCOCC2)nc1C1CC1",
    "clearance (mL/min/kg)": 21
  },
  {
    "compound": "O=C(N[C@H]1C2CC3CC1C[C@](O)(C3)C2)c1sc(OCCO)nc1C1CC1",
    "clearance (mL/min/kg)": 5
  },
  {
    "compound": "O=C(NC1C2CC3CC1CC(O)(C3)C2)c1scnc1[C@H]1CCCO1 (some centres not stated)",
    "clearance (mL/min/kg)": 52
  },
  {
    "compound": "COc1nc(C2CC2)c(C(=O)N[C@H]2C3CC4CC2C[C@](O)(C4)C3)s1",
    "clearance (mL/min/kg)": 15
  },
  {
    "compound": "COCCOc1nc(C2CC2)c(C(=O)N[C@H]2C3CC4CC2C[C@](O)(C4)C3)s1",
    "clearance (mL/min/kg)": 27
  },
  {
    "compound": "COc1nc(C)sc1C(=O)N[C@H]1C2CC3CC1C[C@](O)(C3)C2",
    "clearance (mL/min/kg)": 22
  }
]

[P] Cc1nc(C2CC2)c(C(=O)N[C@H]2C3CC4CC2C[C@](O)(C4)C3)s1
[Q] COc1nc([C@H]2CCCO2)c(C(=O)N[C@H]2C3CC4CC2C[C@](O)(C4)C3)s1
Could you kindly indicate whether P or Q has the higher clearance value? // return label of chosen record Q
(Q: 21 mL/min/kg, P: 14 mL/min/kg)

[a] CS(=O)(=O)Cc1nc([C@H]2CCCO2)c(C(=O)NC2C3CC4CC2CC(O)(C4)C3)s1 (some centres not stated)
[b] COCCOc1nc([C@H]2CCCO2)c(C(=O)NC2C3CC4CC2CC(O)(C4)C3)s1 (some centres not stated)
Look at a and b . Which one has the lower recorded clearance number? Kindly state the label of the option you pick. b
(b: 8 mL/min/kg, a: 17 mL/min/kg)
